Organism: Rattus norvegicus
Assay notes: Open TG-GATES - Regimen: Single
Assay type: toxicity, organism-based, Sprague-Dawley
Parameters: regimen Single, gender Male, age 6 weeks
Condition description: in vivo, po, 0 mg/kg, 9 h, tissue Blood, route gavage, dose level Control
Note to self: values exactly at 20% are t. So Neu at or above 20% is t, below is f.

Query :: Test whether the molecule CCO records Neu of 20% or higher.
Result :: t

Query :: Test whether the molecule Nc1ccc(Cc2ccc(N)cc2)cc1 records Neu of 20% or higher.
Result :: t

Query :: Test whether the molecule O=C(O)c1ccccc1Nc1ccccc1 records Neu of 20% or higher.
Result :: t

Query :: Test whether the molecule CN(CCOc1ccc(CC2SC(=O)NC2=O)cc1)c1ccccn1.O=C(O)/C=C\C(=O)O (configuration not stated) [ROSIGLITAZONE MALEATE] records Neu of 20% or higher.
Result :: f

Query :: Test whether the molecule CCCCNC(=O)NS(=O)(=O)c1ccc(C)cc1 [TOLBUTAMIDE] records Neu of 20% or higher.
Result :: t

Next:
Query :: Test whether the molecule CN(C)CCCN1c2ccccc2Sc2ccc(Cl)cc21 records Neu of 20% or higher.
Result :: f

Query :: Test whether the molecule COc1cc2ncnc(Nc3ccc(F)c(Cl)c3)c2cc1OCCCN1CCOCC1 records Neu of 20% or higher.
Result :: f

* * *

Species: Rattus norvegicus
Assay notes: Open TG-GATES - Regimen: Daily Repeat
Assay type: toxicity, organism-based, Sprague-Dawley
Design: regimen Daily Repeat, gender Male, age 6 weeks
Condition description: in vivo, po, 300 mg/kg, […], tissue Plasma, route gavage, dose level Middle, time 14 day
Readout label: BUN (mg/dL)
Respond numerically; units are mg/dL and should not be typed.

Study these solved cases before continuing.
Query :: Return BUN for the following compound: CCCCNC(=O)NS(=O)(=O)c1ccc(C)cc1 [TOLBUTAMIDE]
Result :: 16

Query :: Return BUN for the following compound: O=C(O)c1ccccc1Nc1ccccc1
Result :: 15.8

Query :: Return BUN for the following compound: CC(S)C(=O)NCC(=O)O (centres undefined)
Result :: 20.4

With those in mind, consider the next compound.
Query :: Return BUN for the following compound: CC(=O)[C@@]1(O)CC[C@H]2[C@@H]3C=C(Cl)C4=CC(=O)CC[C@]4(C)[C@H]3CC[C@@]21C
Result :: 20

* * *

Species: Rattus norvegicus
Assay notes: Open TG-GATES - Regimen: Single
Format: toxicity, organism-based, Sprague-Dawley
Design: regimen Single, gender Male, age 6 weeks
Condition description: in vivo, po, 0 mg/kg, 24 h, tissue Blood, route gavage, dose level Control
Readout label: MCH (pg)
Respond numerically; units are pg and should not be typed.

Query :: Return MCH for the following molecule: Nc1ccc(Cc2ccc(N)cc2)cc1
Result :: 21.2

Next:
Query :: Return MCH for the following molecule: CN(C)CCCN1c2ccccc2Sc2ccc(Cl)cc21
Result :: 21.2

Query :: Return MCH for the following molecule: CCCCNC(=O)NS(=O)(=O)c1ccc(C)cc1 [TOLBUTAMIDE]
Result :: 21.3

Query :: Return MCH for the following molecule: CCN(CC)C(=S)SSC(=S)N(CC)CC
Result :: 20.4

Query :: Return MCH for the following molecule: O=C(O)c1ccccc1Nc1ccccc1
Result :: 20.9

Query :: Return MCH for the following molecule: O=c1ccc2ccccc2o1
Result :: 21.8

Query :: Return MCH for the following molecule: CN(CCOc1ccc(CC2SC(=O)NC2=O)cc1)c1ccccn1.O=C(O)/C=C\C(=O)O (stereo not drawn) [ROSIGLITAZONE MALEATE]
Result :: 21.5

Query :: Return MCH for the following molecule: NS(=O)(=O)c1cc(C(=O)O)c(NCc2ccco2)cc1Cl [FUROSEMIDE]
Result :: 21.3

Provenance of the data: ChEMBL document CHEMBL3885861
